Values compiled from PubChem BioAssay AID624144.

# Test system: human plasma stability, LC-MS/MS, 48 h
# PROTOCOL: qHTS Assay to Find Inhibitors of T. brucei phosphofructokinase: Human Plasma Stability Profiling
# CONDITIONS_USED: at 2 µM; active compounds read low
METRIC_NAME: percent remaining in plasma (higher = more stable) (%)
// note: answer is a bare numeric in %

Task: Query (compound): `O=C(Cc1ccc(Cl)c(Cl)c1)Nc1ccc(S(=O)(=O)Nc2ccon2)cc1` ; field requested: percent remaining in plasma (higher = more stable)
Output: 100
